The compounds below each have a reported pIC50 tested on 72 kDa type IV collagenase (Homo sapiens, UniProt P08253); the values come from various publications.
pIC50: −log10 of the molar value.
Each entry gets not fulfilled if its pIC50 stays under 7, and fulfilled if its pIC50 is 7 or above.

Use these answered entries as a reference point.
                                   compound  classification
0  O=C(NO)[C@H]1CN(C(=O)OCc2ccccc2)CCN1S(=O)(=O)c1cc(F)c(Oc2ccc(Cl)cc2)c(F)c1       fulfilled
1  CSCC[C@H](NS(=O)(=O)c1ccc(C#Cc2ccc3ccccc3c2)s1)C(=O)O   not fulfilled
2  Cc1ccc(C#Cc2ccc(S(=O)(=O)N[C@H](Cc3c[nH]c4ccc(O)cc34)C(=O)O)s2)cc1       fulfilled
3  COc1cccc(OC)c1C(=O)N[C@@H](CS(=O)(=O)c1ccc(Oc2ccccc2)cc1)C(=O)NO       fulfilled
4  Cc1ccc(-c2nc(-c3ccc(S(=O)(=O)N[C@@H](C(=O)O)C(C)C)cc3)no2)cc1       fulfilled

Would you say CC(=O)Nc1cc(N)c(O)c2c1C(C)C1C(=C(O)C3(O)C(=O)C(C(N)=O)=C(O)C(N(C)C)C3C1O)C2=O (centres unmarked) shows pIC50 at minimum 7?
not fulfilled

For this compound, is measured pIC50 7 or higher? `Cc1c(C(=O)Nc2ccc(-c3ccc(S(=O)(=O)N[C@H](Cc4ccccc4)C(=O)O)cc3)cc2)oc2ccccc12`
not fulfilled
